- tested_on: F876L mutant Androgen Receptor (AR-F876L) (Homo sapiens, UniProt P10275, F877L)
- Construct: expressed in transfected cells; host or cells: LNCaP F876L cells with ARE firefly luciferase lentiviral construct
- Sequence (P10275 whole entry F877L): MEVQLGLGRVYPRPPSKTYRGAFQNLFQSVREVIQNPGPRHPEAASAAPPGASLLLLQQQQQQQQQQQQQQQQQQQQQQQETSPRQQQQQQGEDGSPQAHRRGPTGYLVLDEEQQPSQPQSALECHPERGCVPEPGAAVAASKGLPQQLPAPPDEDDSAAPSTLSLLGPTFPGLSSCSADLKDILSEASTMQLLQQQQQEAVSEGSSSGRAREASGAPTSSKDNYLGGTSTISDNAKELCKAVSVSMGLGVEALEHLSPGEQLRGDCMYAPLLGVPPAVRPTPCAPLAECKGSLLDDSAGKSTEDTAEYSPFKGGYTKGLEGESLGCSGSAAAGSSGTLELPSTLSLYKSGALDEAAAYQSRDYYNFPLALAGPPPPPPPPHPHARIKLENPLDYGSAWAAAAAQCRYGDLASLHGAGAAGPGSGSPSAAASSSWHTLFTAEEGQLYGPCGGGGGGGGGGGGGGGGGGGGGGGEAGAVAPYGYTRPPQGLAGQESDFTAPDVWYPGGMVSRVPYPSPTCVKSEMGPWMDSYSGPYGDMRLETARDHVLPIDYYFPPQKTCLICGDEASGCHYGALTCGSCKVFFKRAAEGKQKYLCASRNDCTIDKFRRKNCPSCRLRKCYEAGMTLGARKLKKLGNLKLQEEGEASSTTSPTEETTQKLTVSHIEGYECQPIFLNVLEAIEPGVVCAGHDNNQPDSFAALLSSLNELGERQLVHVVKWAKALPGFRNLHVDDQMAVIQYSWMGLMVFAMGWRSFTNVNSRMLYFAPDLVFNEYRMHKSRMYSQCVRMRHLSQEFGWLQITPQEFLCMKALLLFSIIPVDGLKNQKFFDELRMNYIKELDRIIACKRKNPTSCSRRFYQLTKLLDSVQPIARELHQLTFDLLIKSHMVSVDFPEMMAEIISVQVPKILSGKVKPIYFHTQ
- assay_overview: LNCaP-AR-F876L AG: ARE luciferase reporter assay, agonist mode
- Format: cell-based
- measurement_conditions: maximum % stimulation (agonist response), % of 1 μM R-1881 max
result_type: LNCaP-AR-F876L AG MAX % Stim (%)
// note: answer is a bare numeric in %

{"molecule": "CCCNC(=O)c1ccc(N2C(=S)N(c3cnc(C#N)c(C(F)(F)F)c3)C(=O)C23CCC3)cc1F [Cpd 68]", "LNCaP-AR-F876L AG MAX % Stim, %": 0.9}
{"molecule": "N#Cc1ncc(N2C(=O)C3(CCC3)N(c3ccc(Oc4ccncn4)cc3)C2=S)cc1C(F)(F)F [Cpd 71]", "LNCaP-AR-F876L AG MAX % Stim, %": 0.9}
{"molecule": "N#Cc1ncc(N2C(=O)C3(CCC3)N(c3ccc(C(=O)NCc4ccccc4)c(F)c3)C2=S)cc1C(F)(F)F [Cpd 36]", "LNCaP-AR-F876L AG MAX % Stim, %": 0.3}
{"molecule": "Cc1cc(N2C(=O)C3(CCC3)N(c3ccc(C(=O)NC4CCOCC4)c(F)c3)C2=S)cnc1C#N [Cpd 2]", "LNCaP-AR-F876L AG MAX % Stim, %": "−0.4"}
{"molecule": "N#Cc1ncc(N2C(=O)C3(CCC3)N(c3ccc(Oc4cncnc4)cc3)C2=S)cc1C(F)(F)F [Cpd 88]", "LNCaP-AR-F876L AG MAX % Stim, %": 0.7}

I'd like to know its LNCaP-AR-F876L AG MAX % Stim. The molecule in question is Cc1ccc(NC(=O)c2ccc(N3C(=S)N(c4cnc(C#N)c(C)c4)C(=O)C34CCC4)cc2F)cn1 [Cpd 75]
0.8

I'd like to know its LNCaP-AR-F876L AG MAX % Stim. The molecule in question is N#Cc1ncc(N2C(=O)C3(CCC3)N(c3ccc(C(=O)NCc4ccccc4Cl)c(F)c3)C2=S)cc1C(F)(F)F [Cpd 31]
0.3

I'd like to know its LNCaP-AR-F876L AG MAX % Stim. The molecule in question is Cc1cc(N2C(=O)C3(CCC3)N(c3ccc(C(=O)Nc4nccs4)c(F)c3)C2=S)cnc1C#N [Cpd 63]
0.3

I'd like to know its LNCaP-AR-F876L AG MAX % Stim. The molecule in question is Cc1cncc(-c2ccc(N3C(=S)N(c4cnc(C#N)c(C)c4)C(=O)C34CCC4)cc2)c1 [Cpd 114]
3.3

I'd like to know its LNCaP-AR-F876L AG MAX % Stim. The molecule in question is N#Cc1ncc(N2C(=O)C3(CCC3)N(c3cccnc3)C2=S)cc1C(F)(F)F [Cpd 9]
0.0

I'd like to know its LNCaP-AR-F876L AG MAX % Stim. The molecule in question is N#Cc1ncc(N2C(=O)C3(CCC3)N(c3ccc4ccccc4c3)C2=S)cc1C(F)(F)F [Cpd 18]
0.0
